# System: Fibroblast
# Assay Summary: Multiplex assay against human fibroblast
# Type: toxicity, cell-based
# Setup Conditions: 48 h, 10 µM, compound concentration 10 uM, replicate 2
// reported Population Membrane Permeable-Phenotype (%) per item
Could you give me the number in %? Just the number is fine.

A selection of reference data follows.
CC(C)N1CCC(C)(C)c2cc(C#Cc3ccc(C(=O)O)cc3)ccc21 = 20
C1=N/C2=N/c3ccc(OCCN4CCCC4)c(c3)COC/C=C\COCc3cccc(c3)C(=C1)N2 = 0

Would you kindly share the measured Population Membrane Permeable-Phenotype (%) for COc1cc(N2CCC(N(C)C)CC2)ccc1Nc1ncc(Cl)c(Nc2ccccc2P(C)(C)=O)n1 ?
22

Follow-up entry: CCC(=O)O[C@]1(C(=O)SCF)[C@H](C)C[C@H]2[C@@H]3C[C@H](F)C4=CC(=O)C=C[C@]4(C)[C@@]3(F)[C@@H](O)C[C@@]21C [FLUTICASONE PROPIONATE]
11

Follow-up entry: Cc1cc2c(cc1N1C(=O)c3cccc4c(CCCO)ccc(c34)C1=O)n(C)c(=O)n2C
23

Follow-up entry: COc1ccc(NS(=O)(=O)c2sc3ccc(Cl)cc3c2C)cc1N1CCNCC1.Cl
22

Follow-up entry: CC(=O)c1cc(-c2cc(C(=O)NC3CC3)ccc2C)c2ncccn12
16

Follow-up entry: CC(C)Oc1ccc(C(=O)N[C@H](CNC(=O)CN(C)C)Cc2ccc(-c3cn4cccc([C@H](C)O)c4n3)cc2)cc1Cl [GSK-923295A]
9

Follow-up entry: Cl.Cl.Nc1ncnc2c1c(-c1cccc(OCc3ccccc3)c1)cn2[C@H]1C[C@@H](CN2CCC2)C1
9

----------
# System: Fibroblast
# Assay Summary: Multiplex assay against human fibroblast
# Assay type: toxicity, cell-based
# Setup Conditions: 48 h, 10 µM, compound concentration 10 uM, replicate 1
Label rule met when Population Mitochondria Different-Phenotype (%) is at or above 20%; otherwise label rule not met.

CCCn1c(=O)c2[nH]c(C34CC5CC(CC3C5)C4)nc2n(CCC)c1=O = rule met
Nc1ccc(C(=O)Nc2cccc(-c3nc(N4CCOCC4)c4oc5ncccc5c4n3)c2)cn1 = rule met
Nc1nc2c(c(N3CCNCC3)n1)CCC1=C2[C@@H]2CCCC[C@@H]2O1 = rule not met
COc1cc2c(NC3CCN(C(C)C)CC3)nc(N3CCC(F)(F)CC3)nc2cc1OCCCN1CCCC1 = rule not met
CCc1cc2c(cc1CC)CC(NC[C@H](O)c1ccc(O)c3[nH]c(=O)ccc13)C2 = rule met
CC(C)Oc1ccc(C(=O)N[C@H](CNC(=O)CN(C)C)Cc2ccc(-c3cn4cccc([C@H](C)O)c4n3)cc2)cc1Cl [GSK-923295A] = rule not met
COc1cc(N2CCC(N(C)C)CC2)ccc1Nc1ncc(Cl)c(Nc2ccccc2P(C)(C)=O)n1 = rule met
CNc1oc(-c2cccc3ccccc23)nc1C#N = rule not met

Reported Population Mitochondria Different-Phenotype (%) at or above 20%? CCn1c(-c2nonc2N)nc2cnc(Oc3cccc(NC(=O)c4ccc(OCCN5CCOCC5)cc4)c3)cc21 [GSK-269962A]
rule met

Follow-up entry: O=C(O)c1ccc2cc(-c3ccc(O)c(C45CC6CC(CC(C6)C4)C5)c3)ccc2c1
rule not met

----------
# Tested on: U2OS
# Assay Summary: Multiplex assay against U2OS
# Assay type: toxicity, cell-based
# Setup Conditions: human, 24 h, 1 µM, compound concentration 1 uM, replicate 1
Measurement Label: Population Membrane Permeable-Phenotype (%)
Could you give me the number in %? Just the number is fine.

A selection of reference data follows.
O=C(O)c1ccc2cc(-c3ccc(O)c(C45CC6CC(CC(C6)C4)C5)c3)ccc2c1 = 10
Cc1cc2c(cc1N1C(=O)c3cccc4c(CCCO)ccc(c34)C1=O)n(C)c(=O)n2C = 5
CCCn1c(=O)c2[nH]c(C34CC5CC(CC3C5)C4)nc2n(CCC)c1=O = 5
Cl.Cl.Nc1ncnc2c1c(-c1cccc(OCc3ccccc3)c1)cn2[C@H]1C[C@@H](CN2CCC2)C1 = 5
N#Cc1cnc(Nc2cc(NC[C@H]3CNCCO3)c(C(F)(F)F)cn2)cn1 = 5

Notebook entry, U2OS assay: Population Membrane Permeable-Phenotype (%) of COc1ccc(NS(=O)(=O)c2sc3ccc(Cl)cc3c2C)cc1N1CCNCC1.Cl = ?
3

Follow-up entry: CC(C)Oc1ccc(C(=O)N[C@H](CNC(=O)CN(C)C)Cc2ccc(-c3cn4cccc([C@H](C)O)c4n3)cc2)cc1Cl [GSK-923295A]
28

Follow-up entry: CC(=O)c1cc(-c2cc(C(=O)NC3CC3)ccc2C)c2ncccn12
6

Follow-up entry: CN(C)CCOc1ccc(-c2nc(-c3ccncc3)c(-c3ccc4c(c3)CC/C4=N\O)[nH]2)cc1
34

----------
# System: HEK-293T
# Assay Summary: Multiplex assay against HEK293T;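 further: share of the cells with healthy nuclei that show this phenotype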
# Type: toxicity, cell-based
# Setup Conditions: human, 48 h, 1 µM, compound concentration 1 uM, replicate 2
Label yes when Population Tubulin-Different-Phenotype (%) is at or above 30%; otherwise label no.

Solved entries:
Cc1nc(Cc2cccc(C(F)(F)F)c2)sc1-c1ccc(C(N)=O)nc1 [TP-024n] = no
Nc1ccc(C(=O)Nc2cccc(-c3nc(N4CCOCC4)c4oc5ncccc5c4n3)c2)cn1 = yes
COc1ccc(NS(=O)(=O)c2sc3ccc(Cl)cc3c2C)cc1N1CCNCC1.Cl = yes

Next item in the queue.
Reported Population Tubulin-Different-Phenotype (%) at or above 30%? COc1cc2c(NC3CCN(C(C)C)CC3)nc(N3CCC(F)(F)CC3)nc2cc1OCCCN1CCCC1
yes

----------
# Tested on: U2OS
# Assay Summary: Multiplex assay against U2OS
# Type: toxicity, cell-based
# Setup Conditions: human, 48 h, 1 µM, compound concentration 1 uM, replicate 2
// reported Population Tubulin-Different-Phenotype (%) per item
Could you give me the number in %? Just the number is fine.

A selection of reference data follows.
Nc1ccc(C(=O)Nc2cccc(-c3nc(N4CCOCC4)c4oc5ncccc5c4n3)c2)cn1 = 24
COc1cc2c(NC3CCN(C(C)C)CC3)nc(N3CCC(F)(F)CC3)nc2cc1OCCCN1CCCC1 = 24

Would you kindly share the measured Population Tubulin-Different-Phenotype (%) for CC(=O)c1cc(-c2cc(C(=O)NC3CC3)ccc2C)c2ncccn12 ?
23

Follow-up entry: Cc1nc(Cc2cccc(C(F)(F)F)c2)sc1-c1ccc(C(N)=O)nc1 [TP-024n]
14

----------
# System: U2OS
# Assay Summary: Multiplex assay against U2OS
# Format: toxicity, cell-based
# Setup Conditions: human, 24 h, 1 µM, compound concentration 1 uM, replicate 2
Measurement Label: Population Tubulin-Different-Phenotype (%)
Could you give me the number in %? Just the number is fine.

A selection of reference data follows.
CCOc1cc2ncc(C#N)c(Nc3ccc(OCc4cccc(F)c4)c(Cl)c3)c2cc1NC(=O)/C=C/CN(C)C = 27
CNc1oc(-c2cccc3ccccc23)nc1C#N = 21
Cl.Cl.NC1(c2ccc(-c3nc4ccn5c(=O)[nH]nc5c4cc3-c3ccccc3)cc2)CCC1 = 19
CC(C)Oc1ccc(C(=O)N[C@H](CNC(=O)CN(C)C)Cc2ccc(-c3cn4cccc([C@H](C)O)c4n3)cc2)cc1Cl [GSK-923295A] = 15

Would you kindly share the measured Population Tubulin-Different-Phenotype (%) for CC(=O)c1cc(-c2cc(C(=O)NC3CC3)ccc2C)c2ncccn12 ?
12

Follow-up entry: CNC(=O)c1cc(Oc2ccc(NC(=O)Nc3cc(C(C)(C)C)nn3-c3ccc4ncccc4c3)c(F)c2)ccn1
35

Follow-up entry: CCCn1c(=O)c2[nH]c(C34CC5CC(CC3C5)C4)nc2n(CCC)c1=O
15

Follow-up entry: CCC(=O)O[C@]1(C(=O)SCF)[C@H](C)C[C@H]2[C@@H]3C[C@H](F)C4=CC(=O)C=C[C@]4(C)[C@@]3(F)[C@@H](O)C[C@@]21C [FLUTICASONE PROPIONATE]
20

Follow-up entry: c1ccc2oc(-c3csc(C4CCN(Cc5nc6ncccc6[nH]5)CC4)n3)cc2c1
22

Follow-up entry: Cc1nc(Cc2cccc(C(F)(F)F)c2)sc1-c1ccc(C(N)=O)nc1 [TP-024n]
15

Follow-up entry: COc1cc2c(NC3CCN(C(C)C)CC3)nc(N3CCC(F)(F)CC3)nc2cc1OCCCN1CCCC1
12

Follow-up entry: CC(C)N1CCC(C)(C)c2cc(C#Cc3ccc(C(=O)O)cc3)ccc21
18

Follow-up entry: Cl.Cl.Nc1ncnc2c1c(-c1cccc(OCc3ccccc3)c1)cn2[C@H]1C[C@@H](CN2CCC2)C1
39

Follow-up entry: CCn1c(-c2nonc2N)nc2cnc(Oc3cccc(NC(=O)c4ccc(OCCN5CCOCC5)cc4)c3)cc21 [GSK-269962A]
14

Follow-up entry: CN(C)CCOc1ccc(-c2nc(-c3ccncc3)c(-c3ccc4c(c3)CC/C4=N\O)[nH]2)cc1
30

Follow-up entry: COc1ccc(NS(=O)(=O)c2sc3ccc(Cl)cc3c2C)cc1N1CCNCC1.Cl
5

Follow-up entry: O=C(O)c1ccc2cc(-c3ccc(O)c(C45CC6CC(CC(C6)C4)C5)c3)ccc2c1
18

Follow-up entry: CCc1cc2c(cc1CC)CC(NC[C@H](O)c1ccc(O)c3[nH]c(=O)ccc13)C2
12

Follow-up entry: Nc1nc2c(c(N3CCNCC3)n1)CCC1=C2[C@@H]2CCCC[C@@H]2O1
16

Follow-up entry: CC(C)(C)c1cnc(CSc2cnc(NC(=O)C3CCNCC3)s2)o1
36

Follow-up entry: CN(C)C/C=C/C(=O)Nc1cc2c(Nc3ccc(F)c(Cl)c3)ncnc2cc1O[C@H]1CCOC1.O=C(O)/C=C\C(=O)O.O=C(O)/C=C\C(=O)O [AFATINIB DIMALEATE]
24

Follow-up entry: CNC(=O)c1nn(C)c2c1C(C)(C)Cc1cnc(Nc3ccc(N4CCN(C)CC4)cc3)nc1-2
87

The values you see were collected from ChEMBL document CHEMBL4689842.
